These measurements were taken from paper PMC10096449.

Assay: in vitro
Conditions: African green monkey, CC50 (µM), single experiment (duplicate experiments listed), Vero-E6 cells
Listed next: entries and their corresponding CC50.
MEASURED_METRIC: CC50

INSERT INTO results (compound, test_value) VALUES
  ('O[C@H]1[C@H]2c3cc4c(cc3CN3CCC(=C[C@H]1O)[C@H]23)OCO4 [Compound 7, 2-epi-lycorine]', '> 100 µM'),
  ('[O-]c1cc2c3c(c1)c1cc4c(cc1c[n+]3CC2)OCO4', '> 100 µM'),
  ('COc1cc2c(cc1O)[C@@H](OC)O[C@@H]1CC=C3CCN(C)[C@H]3[C@H]21', '> 100 µM'),
  ('Oc1ccc2c3c1OC1CC(O)CCC31CCNC2 (centres unmarked)', '> 100 µM'),
  ('O[C@H]1[C@H]2c3cc4c(cc3CN3CCC(=C[C@@H]1O)[C@H]23)OCO4', '1.28 µM'),
  ('O[C@H]1[C@H]2c3cc4c(cc3CN3CCC(C[C@H]1O)[C@H]23)OCO4 (some centres unmarked)', '> 100 µM'),
  ('O=C1N[C@H]2[C@H](O)[C@H](O)[C@@H](O)[C@H](O)[C@@H]2c2cc3c(c(O)c21)OCO3', '0.14 µM'),
  ('COc1cc2c(cc1O)[C@@H]1[C@H](O)[C@H](O)C=C3CCN(C2)[C@H]31 (racemic) [Compounds 2 and 3, (±)-2-epi-pseudolycorine]', '> 100 µM');
